Read-out: Macrophage colony-stimulating factor (MCSF), CSF1 (gene 1435)
Assay: BSK_CASM3C_MCSF: BioMAP Diversity Plus: CASM3C Assay for Macrophage colony-stimulating factor (MCSF) Biomarker Activity (AID 2283044);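 also: M-CSF protein amount quantified by ELISA after 24 h exposure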
Settings: primary human coronary artery smooth muscle cells; actives raise or lower the signal
The source made the active and inactive calls. The calls were made as follows: active = hit-call score of the fitted dose curve at least 0.9, where 1 is the maximum; inactive = score below 0.9.
Allowed answers: active, inactive

                                   compound  assigned_class
0  CCCCC(CC)COP(=O)(Oc1ccccc1)Oc1ccccc1 (stereo not drawn)        inactive
1                 CC(C)Nc1ccc(Nc2ccccc2)cc1          active
2                              CCCCc1ccccc1        inactive
3                           ClC(Cl)c1ccccc1        inactive
4  CCCN(CCC)c1c([N+](=O)[O-])cc(C(C)C)cc1[N+](=O)[O-]        inactive
5                             O=C(O)C(Cl)Cl        inactive

What outcome does the record of this test show for "Nc1ccc(Cl)cc1" ?
inactive

Moving on to the next compound: "O=C(O)C=CC(F)(C(F)(F)F)C(F)(F)F"
inactive

This collection of values is drawn from PubChem BioAssay (EPA / NIEHS).
